Provenance of the data: PubChem BioAssay (NCATS)

# Tested on: ATS189
# assay.name: qHTS profiling for inhibitors of Plasmodium falciparum proliferation (AID 504749); also: nearly all actives have a fitted effect of over 60% in size
# details: P. falciparum in erythrocytes, SYBR Green DNA, 72 h; series mostly up to 12.8 µM
Results filed as inconclusive are left out. Calls of active or inactive are those of the source. Calls follow the shape of the dose curve; as a rule, active = well fitted inhibition curve with a large enough effect; inconclusive = small, poorly fitted or top-dose-only effect; inactive = flat fitted curve, though single readings scatter.
Can you answer with just one of these options? 1 (yes) (active), 0 (no) (inactive)

Inquiry: Any idea what this test logged for `CCN1C(=O)N[C@@H](c2ccccc2)C1=O` ?
Reply text: 0 (no)

Inquiry: Record request — test call for `Cc1cc(/C=C\c2ccc3cc(N(C)C)ccc3[n+]2C)c(C)n1-c1ccccc1`
Reply text: 1 (yes)

Inquiry: Kindly provide the recorded test outcome for the following compound: CN1CCCC[C@@H]1CCN1c2ccccc2Sc2ccc(S(C)=O)cc21 (stereo partly specified)
Reply text: 0 (no)

Inquiry: What is the recorded call for this compound in the test? O=c1[nH]cnc2c1ncn2C1OC(CO)C(O)C1O (stereo unspecified)
Reply text: 0 (no)

Inquiry: Just curious, what result did `CCN(CC)CCC[C@H](C)Nc1c2ccc(Cl)cc2nc2ccc(OC)cc12` get here?
Reply text: 1 (yes)

Inquiry: Please share the test call associated with `C[N+]1(C)CCC[C@@H](OC(=O)C(O)(c2ccccc2)c2ccccc2)C1` .
Reply text: 0 (no)

Inquiry: Given `C[C@@H](C(=O)O)c1ccc(C(=O)c2cccs2)cc1` , state the outcome it received in this test.
Reply text: 0 (no)

Inquiry: Field: outcome | Entry: O=C(Cc1cccs1)NC1C(=O)N2C(C(=O)[O-])=C(C[n+]3ccccc3)CSC12 (stereo unspecified)
Reply text: 0 (no)

Inquiry: What classification did `CN(C)[C@@H]1C(=O)C(C(N)=O)=C(O)[C@]2(O)C(=O)C3=C(O)c4c(O)ccc(Cl)c4[C@H](O)[C@H]3C[C@@H]12` end up with in this test?
Reply text: 0 (no)

Inquiry: Entry `CCCN[C@@H](C)C(=O)Nc1c(C)csc1C(=O)OC` : call = ?
Reply text: 0 (no)

Inquiry: # lookup: test call for `NC(N)=NC[C@@H]1COC2(CCCCC2)O1`
Reply text: 0 (no)

Inquiry: Look up the recorded call for `C/C=C\C(=O)N(CC)c1ccccc1C` in this test.
Reply text: 0 (no)

Inquiry: What did the test return for `CCCN(CCC)C(=O)[C@@H](CCC(=O)O)NC(=O)c1ccccc1` ?
Reply text: 0 (no)

Inquiry: Given `CC1(C)O[C@@H]2C[C@H]3[C@H]4C[C@H](F)C5=CC(=O)C=C[C@@]5(C)[C@@H]4[C@H](O)C[C@]3(C)[C@]2(C(=O)CO)O1` , state the outcome it received in this test.
Reply text: 0 (no)

Inquiry: Give the logged outcome of this assay for the following compound: `C[C@@H](CCc1ccccc1)NC[C@H](O)c1ccc(O)c(C(N)=O)c1`
Reply text: 0 (no)

Inquiry: Dear all, I need the recorded test outcome for `COc1ccccc1OC[C@H](O)COC(N)=O` , thank you.
Reply text: 0 (no)

###

# System: HB3
# assay.name: qHTS profiling for inhibitors of Plasmodium falciparum proliferation (AID 504749); also: nearly all actives have a fitted effect of over 60% in size
# details: P. falciparum in erythrocytes, SYBR Green DNA, 72 h; series mostly up to 12.8 µM
Records with an inconclusive call do not appear. Active and inactive are the calls of the source. Calls come from the whole dose curve; as a rule, active = well fitted inhibition curve with a large enough effect; inconclusive = small, poorly fitted or top-dose-only effect; inactive = flat fitted curve, though single readings scatter.
A correct response names exactly one class from active, inactive

Inquiry: Just curious, what result did `C[C@@H](C(=O)O)c1ccc(C(=O)c2cccs2)cc1` get here?
Reply text: inactive

Inquiry: Outcome logged for `NC(=O)OC[C@H](O)COc1ccc(Cl)cc1` in this assay:
Reply text: inactive

Inquiry: Call for entry `O=C(O)/C=C\c1ccc(Cn2ccnc2)cc1` :
Reply text: inactive

Inquiry: What did this assay record as the result for `CN[C@@H]1[C@H](O[C@@H]2O[C@H](CO)[C@@H](N)[C@H](O)[C@@H]2O)O[C@H]2C[C@@H](N)[C@@H](O[C@H]3[C@@H](O)[C@H](O)[C@H](N)C[C@@H]3N)O[C@H]2[C@H]1O` ?
Reply text: inactive

Inquiry: Returns: the outcome recorded for `C[N+]1(C)CCC[C@@H](OC(=O)C(O)(c2ccccc2)c2ccccc2)C1` in this assay.
Reply text: inactive

Inquiry: Can you look up the reported call for `COCCc1ccc(OC[C@H](O)CNC(C)C)cc1` for me?
Reply text: inactive

Inquiry: How was `NC(=O)c1cc[n+](CC2=C(C(=O)O)N3C(=O)[C@@H](NC(=O)[C@H](c4ccccc4)S(=O)(=O)[O-])[C@@H]3SC2)cc1` classified in this test?
Reply text: active

Inquiry: Hello, I am checking results. What call was entered for `NC(N)=NC[C@@H]1COC2(CCCCC2)O1` ?
Reply text: inactive

Inquiry: # lookup: test call for `CCN(CC)CCC[C@H](C)Nc1ccnc2cc(Cl)ccc12`
Reply text: active

Inquiry: Hello, I am checking results. What call was entered for `O=C(c1ccccc1)c1ccc2n1CC[C@H]2C(=O)O` ?
Reply text: inactive

Inquiry: Hello, I am checking results. What call was entered for `CCN(CC)CC#CCOC(=O)[C@@](O)(c1ccccc1)C1CCCCC1` ?
Reply text: inactive

Inquiry: Could you please tell me the result logged for `CN(C)CC/C=C1\c2ccccc2CSc2ccccc21` in this assay?
Reply text: inactive
